# protocol_description: Stability of cannabinoid and Vitamin E components of Beverage 2 (AB Red) stored at 8° C. and 21-25° C., LCMSMS over 570 days
# experimental_conditions: 8° C., 2 days
assay_readout: Stability of Cannabinoids in AB Red (µg/mL)
Report the figure in µg/mL without appending any unit label.

compound: CCCCCc1cc(O)c2c(c1)OC(C)(CCC=C(C)C)C=C2 (stereo not drawn) [CBC, cannabichromene]
value_unit: µg/mL
result: 0.292

Lookup: Could you tell me which Stability of Cannabinoids in AB Red is on file for C=C(C)[C@@H]1CCC(C)=C[C@H]1c1c(O)cc(CCC)cc1O [CBDV, cannabidivarin] ?
Found: 0.197

----------
# protocol_description: Stability of cannabinoid and Vitamin E components of Beverage 1 (AB White) stored at 8° C. and 21-25° C., LCMSMS over 570 days
# Format: physicochemical
# experimental_conditions: beverage stored at 21-25° C., day 29
Assign 1 whenever Stability in AB White, 21-25° C. (content by LCMSMS) does not fall below 0.9 µg/mL; assign -1 whenever it does.

Below are worked cases with known answers.
molecule: C=C(C)[C@@H]1CCC(C)=C[C@H]1c1c(O)cc(CCCCC)c(C(=O)O)c1O
class: 1
--
molecule: CCCCCc1cc(O)c(C/C=C(\C)CCC=C(C)C)c(O)c1
class: 1
--
molecule: CCCCCc1cc(O)c2c(c1)OC(C)(C)c1ccc(C)cc1-2
class: 1

Lookup: Form field: Stability in AB White, 21-25° C. (content by LCMSMS) at least 0.9 µg/mL? Entry: "C=C(C)[C@@H]1CCC(C)=C[C@H]1c1c(O)cc(CCC)cc1O"
Found: -1

Lookup: Check this molecule for Stability in AB White, 21-25° C. (content by LCMSMS) at or above 0.9 µg/mL: CCCc1cc(O)c2c(c1)OC(C)(C)[C@@H]1CCC(C)=C[C@@H]21 [THCV, delta-9-tetrahydrocannabivarin]
Found: 1

Lookup: Confirm if Stability in AB White, 21-25° C. (content by LCMSMS) reported for the molecule CCCCCc1cc(O)c2c(c1)OC(C)(CCC=C(C)C)C=C2 (stereo not drawn) is 0.9 µg/mL or above.
Found: -1

Lookup: # bool: Stability in AB White, 21-25° C. (content by LCMSMS) of CCCCCc1cc(O)c2c(c1)OC1(C)CCC3C1C2C3(C)C (stereo not drawn) >= 0.9 µg/mL
Found: -1

Lookup: API: above_or_equal(metric=Stability in AB White, 21-25° C. (content by LCMSMS), cutoff=0.9 µg/mL) for item CCCCCc1cc(O)c2c(c1)OC(C)(C)[C@@H]1CCC(C)=C[C@@H]21 [D9 THC, delta-9-tetrahydrocannabinol, reference compound]
Found: 1

----------
# Type: physicochemical
# experimental_conditions: stored at room temperature (21-25° C.), day 15
Entries and their Stability in Powder Concentrate (content by LCMSMS) values follow.
Form entry: value (mg/g powder) — number only.

compound: C=C(C)[C@@H]1CCC(C)=C[C@H]1c1c(O)cc(CCCCC)c(C(=O)O)c1O
result: 0.399
--
compound: CC(=O)Oc1c(C)c(C)c2c(c1C)CCC(C)(CCC[C@H](C)CCC[C@H](C)CCCC(C)C)O2 (stereo partly drawn) [α-Tocopheryl acetate]
result: 2.24
--
compound: Cc1c(C)c2c(c(C)c1O)CC[C@@](C)(CCC[C@H](C)CCC[C@H](C)CCCC(C)C)O2
result: 5.07
--
compound: CCCCCc1cc(O)c2c(c1)OC(C)(CCC=C(C)C)C=C2 (stereo not shown)
result: 0.073
--
compound: CCCCCc1cc(O)c2c(c1)OC(C)(C)[C@@H]1CCC(C)=C[C@@H]21 [D9 THC, delta-9-tetrahydrocannabinol, reference compound]
result: 2.49

Lookup: Param item = "CCCCCc1cc(O)c(C/C=C(\C)CCC=C(C)C)c(O)c1" ; retrieve measured Stability in Powder Concentrate (content by LCMSMS).
Found: 1.08

Lookup: // returns reported Stability in Powder Concentrate (content by LCMSMS) for input C=C(C)[C@@H]1CCC(C)=C[C@H]1c1c(O)cc(CCCCC)cc1O [CBD, cannabidiol, reference compound]
Found: 5.85
